Taken from patent US8999982B2.

test target: Axl (Homo sapiens (Human))
Sequence (P30530 26-894): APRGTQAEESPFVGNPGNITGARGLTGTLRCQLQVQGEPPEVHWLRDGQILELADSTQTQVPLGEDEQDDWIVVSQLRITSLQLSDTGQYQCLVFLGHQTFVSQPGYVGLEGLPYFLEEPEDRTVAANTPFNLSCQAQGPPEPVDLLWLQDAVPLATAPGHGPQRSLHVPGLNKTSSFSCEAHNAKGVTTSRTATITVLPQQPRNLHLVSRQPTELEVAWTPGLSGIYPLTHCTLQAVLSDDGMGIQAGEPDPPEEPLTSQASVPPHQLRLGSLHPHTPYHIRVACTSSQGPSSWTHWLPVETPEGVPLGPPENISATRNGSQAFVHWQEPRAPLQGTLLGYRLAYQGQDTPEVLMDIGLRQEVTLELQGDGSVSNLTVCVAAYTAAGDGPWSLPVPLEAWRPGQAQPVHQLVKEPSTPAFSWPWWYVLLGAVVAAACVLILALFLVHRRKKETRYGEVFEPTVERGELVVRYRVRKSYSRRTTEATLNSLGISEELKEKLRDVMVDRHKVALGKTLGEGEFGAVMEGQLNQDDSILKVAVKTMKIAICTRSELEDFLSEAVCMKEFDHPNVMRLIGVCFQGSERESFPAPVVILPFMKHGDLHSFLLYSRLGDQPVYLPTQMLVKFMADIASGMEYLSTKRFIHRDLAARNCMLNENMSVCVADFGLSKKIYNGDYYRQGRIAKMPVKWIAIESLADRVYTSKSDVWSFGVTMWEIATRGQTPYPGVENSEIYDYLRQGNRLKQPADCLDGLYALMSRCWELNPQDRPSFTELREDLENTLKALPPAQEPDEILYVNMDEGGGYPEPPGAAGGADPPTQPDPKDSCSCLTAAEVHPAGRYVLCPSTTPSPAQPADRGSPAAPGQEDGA
assay explanation: Cellular Axl phosphorylation assay
Format: cell-based
condition summary: HEK293 cells transfected with Axl cDNA, 1 hour incubation
readout: IC50

Please review the entries below; each comes with its answer.
CCOc1cn(-c2ccc(F)cc2)nc1C(=O)Nc1ccc(Oc2ccnc3cc(OCCCN)c(OC)cc23)c(F)c1 = < 500 nM
COc1cc2c(Oc3ccc(NC(=O)c4nn(-c5ccc(F)cc5)cc4OCC4CC4)cc3F)ccnc2cc1OCC1CCNCC1 = < 500 nM
CCOc1oc(-c2ccc(F)cc2)nc1C(=O)Nc1ccc(Oc2ccnc3cc(OCCCN4CCN(C)CC4)c(OC)cc23)c(F)c1 = < 500 nM

Assay Axl (Homo sapiens (Human)), sample "COc1cc2nccc(Oc3ccc(NC(=O)c4cc(C)n(C)n4)cc3F)c2cc1OC" , IC50 read: 500 to 5000 nM

Assay Axl (Homo sapiens (Human)), sample "COc1cc2c(Oc3ccc(NC(=O)c4cc(C)n(C(C)(C)C)n4)cc3F)ccnc2cc1OCCCN1CCOCC1" , IC50 read: < 500 nM

Assay Axl (Homo sapiens (Human)), sample "CCCn1ccc(C(=O)Nc2ccc(Oc3ccnc4cc(OC)c(OC)cc34)c(F)c2)n1" , IC50 read: < 500 nM

Assay Axl (Homo sapiens (Human)), sample "COc1cc2c(Oc3ccc(NC(=O)c4nn(-c5ccc(F)cc5)cc4OCC4CC4)cc3F)ccnc2cc1OCCCN1CCN(C)CC1" , IC50 read: < 500 nM

Assay Axl (Homo sapiens (Human)), sample "COc1cc2nccc(Oc3ccc(NC(=O)c4nn(-c5ccc(F)cc5)cc4OCC4CC4)cc3)c2cc1OC" , IC50 read: < 500 nM

Assay Axl (Homo sapiens (Human)), sample "COc1cc2c(Oc3ccc(NC(=O)c4csc(-c5ccccc5)n4)cc3F)ccnc2cc1OCC1CCNCC1" , IC50 read: 500 to 5000 nM

Assay Axl (Homo sapiens (Human)), sample "COc1cc2nccc(Oc3ccc(NC(=O)c4nn(-c5ccc(F)cc5)cc4OCCCN(C)C)cc3F)c2cc1OC" , IC50 read: 500 to 5000 nM
